test system: NCI-H226 lung; assay: NCI tumour cell line growth inhibition, 48 h
reportedMetric: TGI

stdin: Request the reported TGI associated with `CC(=O)O[C@]1(C)OC(=O)[C@@H](C)N1[N+](=O)[O-]`
stdout: > 100 µM

stdin: For the molecule shown here, `Cc1cc(C2=NNC(=O)Cc3cc4c(cc32)OCCO4)cc(C)c1N` , give the reported TGI.
stdout: > 100 µM

Next:
stdin: I am curious: what TGI value has been reported for `CO/N=C(/C(=O)N(C(=O)/C(=N/OC)c1csc(NC(c2ccccc2)(c2ccccc2)c2ccccc2)n1)n1cnn(CC(=O)OC(C)(C)C)c1=O)c1csc(NC(c2ccccc2)(c2ccccc2)c2ccccc2)n1` ?
stdout: > 10 µM

stdin: I am curious: what TGI value has been reported for CCOP(=O)(OCC)C(N)Cc1ccc(OC)c(OC)c1 (stereo not given) ?
stdout: > 100 µM

stdin: Recorded TGI of `COC(=O)[C@]12CC[C@@H](C)[C@H](C)[C@@H]1C1=CC[C@@H]3[C@@]4(C)C(C=O)=C[C@@](C)(COC(=O)c5ccco5)[C@@H]4C(=O)C[C@@]3(C)[C@]1(C)CC2` , please.
stdout: 12.6 µM

stdin: For the molecule shown here, c1ccc(-c2cc(C3CO3)c3ccccc3n2)cc1 (stereo not given) , give the reported TGI.
stdout: 43.1 µM

stdin: I am curious: what TGI value has been reported for `C1=Nc2sc3c(c2C2=NCCN12)CCCC3` ?
stdout: 33.2 µM

stdin: Quick one: TGI for `COc1ccc2nc3cc(Cl)ccc3c(N3CCN(c4ccnc(N5CCOCC5)n4)CC3)c2c1` ?
stdout: > 100 µM

stdin: Recorded TGI for `COc1ccc2c(c1)[n+]([O-])c(-c1ccccc1)c(N)[n+]2[O-]` , please?
stdout: > 100 µM

stdin: Entry `CN[C@@H](C)[C@@H](N)c1ccccc1` : reported TGI = ?
stdout: > 100 µM
